Assignment: determine reported IC50 for the given molecules.
Target system: human PAR4 (Homo sapiens)
Sequence (Q96RI0 18-385): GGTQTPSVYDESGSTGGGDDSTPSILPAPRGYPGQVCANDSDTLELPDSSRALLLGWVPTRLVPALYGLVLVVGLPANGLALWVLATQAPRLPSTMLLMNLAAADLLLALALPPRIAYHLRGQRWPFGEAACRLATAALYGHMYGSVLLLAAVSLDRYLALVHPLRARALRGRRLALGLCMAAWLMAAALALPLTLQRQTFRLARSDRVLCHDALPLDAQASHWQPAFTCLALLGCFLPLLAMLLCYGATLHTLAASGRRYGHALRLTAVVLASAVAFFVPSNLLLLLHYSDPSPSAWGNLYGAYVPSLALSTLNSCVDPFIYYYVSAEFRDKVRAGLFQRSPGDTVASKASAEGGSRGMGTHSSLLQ
Procedure details: PAR4 FLIPR assay: antagonism of agonist-peptide-induced calcium mobilization in PAR4-expressing HEK293 cells
Experimental parameters: H-Ala-Phe(4-F)-[…]NH2-induced intracellular calcium mobilization, 11-point curves
Write the figure, then the unit, nothing else.

Return IC50 for the following molecule: COc1cnc2c(-c3nc4cc(F)c(O[C@@H](C)[C@@H](C)OC(=O)Nc5ccc(C(N)=O)nc5)nc4s3)cc(C)cc2n1
0.3 nM

Return IC50 for the following molecule: COc1cnc2c(-c3nc4c(Cl)c(F)c(OCCOC(=O)Nc5nsc(OC)n5)cc4s3)cc(C)cc2n1
1700 nM

Return IC50 for the following molecule: COc1cnc2c(-c3nc4c(Cl)c(F)c(OCCOC(=O)Nc5ccc6[nH]ccc6c5)cc4s3)cc(C)cc2n1
160 nM

Return IC50 for the following molecule: COc1cnc2c(-c3nc4c(C)cc(OCCOC(=O)Nc5ccc(C)nc5)cc4s3)cc(CO)cc2n1
2.2 nM

Return IC50 for the following molecule: COc1cnc2c(-c3nc4cc(F)c(OC[C@@H](C)OC(=O)Nc5ccnc(C(=O)N(C)C)c5)cc4s3)cc(C)cc2n1
21 nM

Return IC50 for the following molecule: Cc1cc(-c2nc3cc(F)c(O[C@@H](C)[C@@H](C)OC(=O)Nc4cnc(C)nc4)cc3s2)c2ncc(OC(C)C)nc2c1
7.4 nM

Return IC50 for the following molecule: COc1cnc2c(-c3nc4c(C(O)C(C)(C)C)cc(OCCOC(=O)Nc5cncc(C#N)c5)cc4s3)cc(C)cc2n1 (centres unmarked)
2.7 nM

Return IC50 for the following molecule: COc1cnc2c(-c3nc4cc(F)c(O[C@@H](C)[C@@H](C)OC(=O)Nc5ccc(C(=O)NCC(C)(C)O)nc5)cc4s3)cc(C)cc2n1
0.9 nM

Return IC50 for the following molecule: Cc1cc(-c2nc3cccc(OCC(=O)Nc4ccccc4)c3s2)c2ncc(OC(F)F)nc2c1
280 nM

Return IC50 for the following molecule: COc1cnc2c(-c3nc4cc(F)c(O[C@@H](C)[C@@H](C)OC(=O)Nc5cnc(C)nc5)cc4s3)cc(C)cc2c1
3 nM

Return IC50 for the following molecule: COc1cnc2c(-c3nc4c(Cl)c(F)c(O[C@@H](C)[C@@H](C)OC(=O)Nc5cccnc5)cc4s3)cc(C)cc2n1
2.2 nM

Return IC50 for the following molecule: C#Cc1cc(-c2nc3c(C)cc(OCCNS(=O)(=O)c4ccc(F)cc4)cc3s2)c2ncc(OC)nc2c1
2.2 nM

Return IC50 for the following molecule: COc1cnc2c(-c3nc4cc(F)c(OC[C@@H](C)OC(=O)Nc5cnc(OC[C@H](C)O)nc5)nc4s3)cc(C)cc2n1
2.7 nM

Return IC50 for the following molecule: COCc1cnc2c(-c3nc4c(Cl)cc(OCCNS(=O)(=O)c5ccccc5F)cc4s3)cc(C)cc2n1
0.5 nM
